# assayedTarget: UK variant RBD (R319-F541 with N501Y), C-terminal 6-His (SARS-CoV-2, UniProt P0DTC2 319-541)
# assayNotes: lateral flow NC50, RBD-AuNP vs immobilised ACE2
parameter: IC50 (µg/mL)
// note: answer is a bare numeric in µg/mL

1035709 (antibody, V domains shown) VH: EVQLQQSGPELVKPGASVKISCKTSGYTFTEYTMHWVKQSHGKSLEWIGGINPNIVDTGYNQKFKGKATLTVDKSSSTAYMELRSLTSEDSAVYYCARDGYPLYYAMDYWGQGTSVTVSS VL: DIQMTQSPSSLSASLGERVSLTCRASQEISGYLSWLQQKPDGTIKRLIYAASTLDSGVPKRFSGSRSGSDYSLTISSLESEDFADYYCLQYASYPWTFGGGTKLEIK
1.08

Ask: Form field: reported IC50 of 1035224 (antibody, V domains shown) VH: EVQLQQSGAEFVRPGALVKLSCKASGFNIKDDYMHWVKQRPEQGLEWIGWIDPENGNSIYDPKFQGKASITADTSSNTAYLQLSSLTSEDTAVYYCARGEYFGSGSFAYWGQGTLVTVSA VL: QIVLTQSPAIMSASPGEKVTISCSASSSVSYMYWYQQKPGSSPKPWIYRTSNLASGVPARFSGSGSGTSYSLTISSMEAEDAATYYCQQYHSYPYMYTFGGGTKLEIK
Reply: 2.72
